measurement-target: Phosphodiesterase 6
assay-notes: Inhibitory activity against phosphodiesterase 6 (PDE6) obtained from canine or bovine retina
Assay type: protein assay
Response field class: enum, chosen by comparing IC50 against lower range: < 600 nM; middle range: ≥ 600 nM and < 1000 nM; upper range: ≥ 1000 nM

Determine which band this molecule sits in: COCCCN1CC[C@@H](N2CC(=O)N3[C@H](c4ccc5c(c4)OCO5)c4[nH]c5ccccc5c4C[C@@H]3C2=O)C1 upper range

Class (by measured IC50) for O=C1[C@H]2Cc3c([nH]c4ccccc34)[C@@H](c3ccc4c(c3)OCO4)N2C(=O)CN1[C@@H]1CCN(CCC2CC2)C1 upper range

Which band does CCCN1CC[C@@H](N2CC(=O)N3[C@H](c4ccc5c(c4)OCO5)c4[nH]c5ccccc5c4C[C@@H]3C2=O)C1 fall in? upper range

Tag the class for O=C1[C@H]2Cc3c([nH]c4ccccc34)[C@@H](c3ccc4c(c3)OCO4)N2C(=O)CN1C1CCN(Cc2ccccc2)CC1 upper range

Form: Item = O=C1[C@H]2Cc3c([nH]c4ccccc34)[C@@H](c3ccc4c(c3)OCO4)N2C(=O)CN1[C@@H]1CCN(CCc2cnccn2)C1 ; Class = ? lower range

Using the reported IC50, which band applies to O=C(CCN1CC[C@@H](N2CC(=O)N3[C@H](c4ccc5c(c4)OCO5)c4[nH]c5ccccc5c4C[C@@H]3C2=O)C1)N1CCC1 ? middle range

Exercise: read the entry CN(C)C(=O)CCN1CC[C@@H](N2CC(=O)N3[C@H](c4ccc5c(c4)OCO5)c4[nH]c5ccccc5c4C[C@@H]3C2=O)C1 and state which class it falls under. middle range

Class? Entry: Cn1ccnc1CCN1CC[C@@H](N2CC(=O)N3[C@H](c4ccc5c(c4)OCO5)c4[nH]c5ccccc5c4C[C@@H]3C2=O)C1 (stereo in doubt; form 2) lower range

Quick check: band for CCNC(=O)CCN1CC[C@@H](N2CC(=O)N3[C@H](c4ccc5c(c4)OCO5)c4[nH]c5ccccc5c4C[C@@H]3C2=O)C1 middle range

Where would NC(=O)CCN1CC[C@@H](N2CC(=O)N3[C@H](c4ccc5c(c4)OCO5)c4[nH]c5ccccc5c4C[C@@H]3C2=O)C1 land among the classes by reported IC50? upper range

Please classify: Cn1ccnc1CCN1CC[C@@H](N2CC(=O)N3[C@H](c4ccc5c(c4)OCO5)c4[nH]c5ccccc5c4C[C@@H]3C2=O)C1 (stereo in doubt; form 1) lower range
